Measured log fold change Tl+ flux values are reported for all entries that follow.
# System: R275C/beta4
# assay_text: modulators of BK channel variants, profiling panel, selectivity assay, cell-based, U2OS BacMam, thallium flux, beta subunits (AID 1259406);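 also: initial slope of Thallos dye fluorescence rise after thallium is added; log ratio against the mean of 0.3% DMSO vehicle wells on the same plate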
# assay_setup: at 30 µM
assay_readout: log fold change Tl+ flux

>>> observed_result("Cc1noc(NS(=O)(=O)c2ccc(N)cc2)c1C")
-0.0229
>>> observed_result("Clc1cccc(Cl)c1NC1=NCCN1")
0.0373
>>> observed_result("OCCN1CCN(CCCN2c3ccccc3Sc3ccc(C(F)(F)F)cc32)CC1")
0.23
>>> observed_result("NCc1ccc(S(N)(=O)=O)cc1")
-0.0166
>>> observed_result("COC(=O)Nc1nc2ccc(C(=O)c3ccccc3)cc2[nH]1")
-0.0663
>>> observed_result("CC(=O)O[C@]1(C(C)=O)CC[C@H]2[C@@H]3C=C(C)C4=CC(=O)CC[C@]4(C)[C@H]3CC[C@@]21C")
-0.0116
>>> observed_result("O=C(O)c1cc(=O)c2c(OCC(O)COc3cccc4oc(C(=O)O)cc(=O)c34)cccc2o1")
-0.125
>>> observed_result("OCCN1C[C@H](O)[C@@H](O)[C@H](O)[C@H]1CO")
-0.031
>>> observed_result("CC(=O)OCC(=O)[C@@]1(O)CC[C@H]2[C@@H]3CCC4=CC(=O)C=C[C@]4(C)[C@H]3[C@@H](O)C[C@@]21C")
0.0243
>>> observed_result("Cc1ccc(-c2cc(C(F)(F)F)nn2-c2ccc(S(N)(=O)=O)cc2)cc1")
-0.00588

###

# assay_text: decreased DLD-1 cellular survival, CellTiter-Glo luminescent readout, NPC compound collection, primary HTS (AID 1117346)
# assay_setup: DLD-1 viability, CellTiter-Glo luminescence; at 20 µM (top of the series)
Rule: measured viability decrease (inhibition) below 10% gets 1; anything equal to or greater than 10% gets 0.

>>> discrete_label("N#CC1(c2ccc(F)cc2)CCC(=O)CC1")
1
>>> discrete_label("Clc1ccccc1-c1nc(-c2ccncc2)no1")
1
>>> discrete_label("CCCCC(=O)OCC(=O)[C@H]1[C@H](C)C[C@H]2[C@@H]3C[C@H](F)C4=CC(=O)C=C[C@]4(C)[C@@]3(F)[C@@H](O)C[C@@]21C")
1
>>> discrete_label("CC(C(O)c1ccccc1)N(C)CCOC(c1ccccc1)c1ccccc1 (stereo unspecified)")
0
>>> discrete_label("COc1cccc(CCc2ccccc2OCC(CN(C)C)OC(=O)CCC(=O)O)c1 (stereo unspecified)")
0
>>> discrete_label("NS(=O)(=O)c1cc(C2(O)NC(=O)c3ccccc32)ccc1Cl (stereo unspecified)")
1
>>> discrete_label("C[N+]1(CC2COC(c3ccccc3)(C3CCCCC3)O2)CCCCC1 (stereo unspecified)")
1
>>> discrete_label("CCc1oc2ccccc2c1C(=O)c1cc(I)c(O)c(I)c1")
0
>>> discrete_label("CC(C)(C)c1cc(C=O)cc(C(C)(C)C)c1O")
1
>>> discrete_label("CNC(=O)c1c(I)c(NC(=O)CCCCC(=O)Nc2c(I)c(C(=O)O)c(I)c(C(=O)NC)c2I)c(I)c(C(=O)O)c1I")
1
>>> discrete_label("NC(=S)N/N=C/c1cccnc1")
1
>>> discrete_label("CCCCNc1ccc(C(=O)OCCN(CC)CC)cc1")
0
>>> discrete_label("NC(=O)N1c2ccccc2C=Cc2ccccc21")
1
>>> discrete_label("c1ccc2c(c1)CCCC2C1=NCCN1 (stereo unspecified)")
1
>>> discrete_label("O=C(O)CCCC[P+](c1ccccc1)(c1ccccc1)c1ccccc1")
1
>>> discrete_label("CCOC(=O)[C@H](CCc1ccccc1)N[C@@H](C)C(=O)N1Cc2ccccc2C[C@H]1C(=O)O")
1
>>> discrete_label("COc1cc(NC(C)CCCN)c2ncccc2c1 (stereo unspecified)")
0
>>> discrete_label("O=C(COCCOCCOCC(=O)Nc1c(I)cc(I)c(C(=O)O)c1I)Nc1c(I)cc(I)c(C(=O)O)c1I")
1
>>> discrete_label("CC1(C)OC[C@@H]2O[C@@]3(C(=O)O)OC(C)(C)O[C@H]3[C@@H]2O1")
1
>>> discrete_label("Cc1[nH]cnc1C[C@H]1CCc2c(C)c3ccccc3n2C1=O")
0
>>> discrete_label("Cn1c(O)c(N=NC(N)=S)c2ccccc21")
0
>>> discrete_label("Cc1ncc(CO)c(CN)c1O")
1
>>> discrete_label("OCCCc1ccccc1")
1
>>> discrete_label("CCCCC/C=C\\C/C=C\\CCCCCCCC(=O)NC(C)c1ccccc1 (stereo unspecified)")
1
>>> discrete_label("O=C(O)Cn1cnnn1")
1
>>> discrete_label("O=C(OCC(COC(=O)c1cccnc1)(COC(=O)c1cccnc1)COC(=O)c1cccnc1)c1cccnc1")
1
>>> discrete_label("O=C(O)Cc1csc(-c2ccc(Cl)cc2)n1")
1
>>> discrete_label("Cc1ccccc1N=Nc1ccc(N=Nc2c(O)ccc3ccccc23)c(C)c1")
0
>>> discrete_label("CCC(CN)=C(c1ccccc1)c1ccccc1")
0
>>> discrete_label("CC(=O)O[C@]1(C(C)=O)CC[C@H]2[C@@H]3C=C(C)C4=CC(=O)CC[C@]4(C)[C@H]3CC[C@@]21C")
0
>>> discrete_label("CCc1nc(N)nc(N)c1-c1ccc(Cl)cc1")
0
>>> discrete_label("COC(=O)c1nc(Cl)c(Cl)nc1N")
0
>>> discrete_label("CO/N=C(\\C(=O)O)c1csc(NC(=O)CCl)n1")
1
>>> discrete_label("OCCN(CCO)c1nc(N2CCCCC2)c2nc(N(CCO)CCO)nc(N3CCCCC3)c2n1")
1
>>> discrete_label("COC(=O)c1cc(S(N)(=O)=O)ccc1OC")
1
>>> discrete_label("N=C(N)c1ccc(OCCCOc2ccc(C(=N)N)cc2)cc1")
1
>>> discrete_label("CCOC(=O)[C@H](CCc1ccccc1)N[C@H]1CCc2ccccc2N(CC(=O)O)C1=O")
0
>>> discrete_label("CCCCCCn1c(=O)c2c(ncn2C)n(C)c1=O")
1
>>> discrete_label("O=C(O)Cc1cccc(-c2cc(CCCCCCc3ccc(O[C@H]4O[C@H](CO)[C@@H](O)[C@H](O)[C@@H]4O)c(-c4cccc(CC(=O)O)c4)c3)ccc2O[C@H]2O[C@H](CO)[C@@H](O)[C@H](O)[C@@H]2O)c1")
1
>>> discrete_label("O=C1CCC(C(=O)O)N1 (stereo unspecified)")
1
>>> discrete_label("Nc1ccc(C(=O)Nc2ccccc2N)cc1")
0
>>> discrete_label("CN(C)CCCN1c2ccccc2CCc2ccccc21")
1
>>> discrete_label("Oc1ccc(/C=C/c2cc(O)cc(O)c2)cc1")
0
>>> discrete_label("NS(=O)(=O)c1cc2c(cc1Cl)CN(C1CCCCC1)C2=O")
1
>>> discrete_label("O=C(O)c1cc(O)c2c(c1)[O][Bi][O]2")
1
>>> discrete_label("CCOC(CN1CCN(CC(C)C(=O)c2ccccc2)CC1)c1ccccc1 (stereo unspecified)")
1

###

# assay_text: inhibition of endothelial tube formation, primary screen, imaging, VEGF stimulated, CD31 staining, tube area, NPC library (AID 1117340)
# assay_setup: VEGF-stimulated ADSC/ECFC co-culture, at 10 µM
Active and inactive are the calls of the source.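 How the source made its calls: active means compound that reduces growth-factor-driven endothelial tube area in a mixed cell culture, no cutoff stated; inactive means the rest.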
Outcome codes: active, inactive

>>> discrete_label("C=CCN1C(=O)C(CC(C)C)NC1=S (configuration not stated)")
"inactive"
>>> discrete_label("CC(=O)CCCCn1c(=O)c2c(ncn2C)n(C)c1=O")
"inactive"
>>> discrete_label("CCCC(CCC)(C(=O)OCC)C(=O)OCC")
"inactive"
>>> discrete_label("C/C=C/C=N/NC(=O)c1ccncc1")
"inactive"
>>> discrete_label("CCCC(O)C(CC)CO (configuration not stated)")
"inactive"
>>> discrete_label("O=C(Nc1ccc([N+](=O)[O-])cc1)Nc1ccc([N+](=O)[O-])cc1")
"active"
>>> discrete_label("CCCCOC(=O)CC(CC(=O)OCCCC)(OC(C)=O)C(=O)OCCCC")
"inactive"

###

# assay_text: survival rescue of mitochondrial mutant cells in low glucose, primary screen, MELAS cybrids, Rieske KO mouse fibroblasts, CellTiter-Glo (AID 1508586);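 also: z relative to plate mean and SD of compound and empty wells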
# assay_setup: Rieske KO mouse fibroblast survival, CellTiter-Glo 72 h
Measured z-score values are reported for all entries that follow.
assay_readout: z-score

>>> observed_result("Cc1cccc(CN2CCN(C(c3ccccc3)c3ccc(Cl)cc3)CC2)c1 (stereo not given)")
-0.151
>>> observed_result("N#Cc1ccc2c(-c3ccnc(NC4CC4)n3)c(-c3ccc(F)cc3)nn2c1")
-0.125
>>> observed_result("CN(C)CCCNc1nccc(-c2c(-c3ccc(F)cc3)nn3cc(C(F)(F)F)ccc23)n1")
-0.332
>>> observed_result("Fc1ccc(-c2ncn(C3CCNCC3)c2-c2ccnc(Oc3ccccc3)n2)cc1")
-0.286
>>> observed_result("Cc1cc(-c2ccco2)cc(C)c1/C=C/c1cncc(-c2nn[nH]n2)c1")
-0.188
>>> observed_result("c1ccc(Oc2ccc(Nc3ncc(-c4ccccc4)o3)cc2)cc1")
-0.417
>>> observed_result("Cc1nnc(-c2ccc(C)c(-c3ccc(C(=O)NCc4ccc(Cl)cc4)cc3)c2)o1")
-0.533
>>> observed_result("C[C@]12CCC(=O)C=C1CC[C@@H]1[C@@H]2C(=O)C[C@@]2(C)[C@H]1CC[C@]2(O)C(=O)CO")
-0.104
>>> observed_result("C#Cc1cccc(Nc2ncnc3ccc(OCCCCNCCS(C)(=O)=O)cc23)c1")
-0.333
>>> observed_result("CN1CCC(C(=O)NC2NNC3NNC(c4ccccc4)CC32)CC1 (stereo not given)")
-0.215
